Measured values drawn from paper PMC9182007 for this set.

Parameter log k IAM: see the listing below.
# measurementNotes: HPLC on immobilized artificial membrane column (HPLCIAM)
# Format: physicochemical
# studyConditions: Table S5, IAM column, pH 7.4
Write no unit; give the number alone.

Consider the worked cases shown below.
| compound | log k IAM |
| --- | --- |
| CC(C)Cc1ccc(C(C)C(=O)O)cc1 (stereo not shown) | -0.07 |
| CC(C)NCC(O)COc1ccc(COCCOC(C)C)cc1 (stereo not shown) | 0.83 |
| CCCc1nn(C)c2c(=O)[nH]c(-c3cc(S(=O)(=O)N4CCN(C)CC4)ccc3OCC)nc12 | 1.15 |
| CC(C(=O)O)c1cccc(C(=O)c2ccccc2)c1 (stereo not shown) | -0.71 |
| CCCc1nc2c(C)cc(-c3nc4ccccc4n3C)cc2n1Cc1ccc(-c2ccccc2C(=O)O)cc1 | 0.67 |
| OCCN1CCN(CCC=C2c3ccccc3Sc3ccc(C(F)(F)F)cc32)CC1 | 1.71 |
| Cc1nc2n(c(=O)c1CCN1CCC(c3noc4cc(F)ccc34)CC1)CCCC2 | 0.68 |
| NC(=O)N1c2ccccc2C=Cc2ccccc21 [carbamazepine] | 0.18 |
| CCN1CCCC1CNC(=O)c1cc(S(N)(=O)=O)ccc1OC (stereo not shown) [sulpiride] | 0.22 |
| CSc1ccc2c(c1)N(CCC1CCCCN1C)c1ccccc1S2 (stereo not shown) | 1.68 |

Please find the next compound below.
The recorded log k IAM for O=C1CC2(CCCC2)CC(=O)N1CCCCN1CCN(c2ncccn2)CC1 is 0.84

###

# targetUnderTest: human serum albumin (HSA) (Homo sapiens, UniProt P02768)
# Sequence (P02768 25-609): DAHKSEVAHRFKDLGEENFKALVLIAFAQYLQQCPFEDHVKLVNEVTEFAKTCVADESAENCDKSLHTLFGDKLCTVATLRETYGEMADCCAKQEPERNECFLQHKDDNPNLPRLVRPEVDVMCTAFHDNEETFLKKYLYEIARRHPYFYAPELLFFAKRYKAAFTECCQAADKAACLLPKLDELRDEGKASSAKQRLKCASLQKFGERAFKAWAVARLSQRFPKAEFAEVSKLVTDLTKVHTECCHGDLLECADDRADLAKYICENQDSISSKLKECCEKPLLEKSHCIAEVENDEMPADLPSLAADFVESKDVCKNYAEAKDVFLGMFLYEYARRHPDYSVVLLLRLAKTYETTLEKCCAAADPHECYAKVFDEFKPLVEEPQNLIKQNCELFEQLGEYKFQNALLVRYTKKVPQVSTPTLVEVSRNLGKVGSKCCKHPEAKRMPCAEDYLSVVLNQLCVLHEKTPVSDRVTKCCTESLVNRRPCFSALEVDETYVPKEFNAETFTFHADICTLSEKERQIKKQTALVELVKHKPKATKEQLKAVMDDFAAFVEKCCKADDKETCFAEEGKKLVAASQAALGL
# measurementNotes: in vitro
# studyConditions: immobilized hsa column, pH 7.4
# label = T if chromatographic logD >= 0.2 else F

Solved cases below.
| compound | cat |
| --- | --- |
| CC(C)NCC(O)COc1cccc2[nH]ccc12 (centres unmarked) [pindolol] | T |
| CCCc1nn(C)c2c(=O)[nH]c(-c3cc(S(=O)(=O)N4CCN(C)CC4)ccc3OCC)nc12 [sildenafil] | T |
| CCCC(CCC)C(=O)O [valproic acid] | T |

**Query** Given the entry CCC[C@@H]1C[C@@H](C(=O)N[C@@H]([C@H]2O[C@H](SC)[C@H](O)[C@@H](O)[C@H]2O)[C@@H](C)O)N(C)C1 [lincomycin] , answer whether its chromatographic logD meets or surpasses 0.2.
**Result** F

**Query** Given the entry C[C@H]1c2cccc(O)c2C(=O)C2=C(O)[C@]3(O)C(=O)C(C(N)=O)=C(O)[C@@H](N(C)C)[C@@H]3[C@@H](O)[C@@H]21 [doxycycline] , answer whether its chromatographic logD meets or surpasses 0.2.
**Result** T

###

# measurementNotes: HPLC on immobilized artificial membrane column (HPLCIAM)
# Assay type: physicochemical
# studyConditions: Table S5, retention factor, IAM column, phosphate buffer pH 7.4/acetonitrile 80:20
# label = 1 if k IAM >= 3 else -1

| compound | cat |
| --- | --- |
| CC(CN1c2ccccc2Sc2ccccc21)N(C)C (stereo not drawn) | 1 |

**Query** Given the entry Cc1nnc2n1-c1ccc(Cl)cc1C(c1ccccc1)=NC2 , answer whether its k IAM meets or surpasses 3.
**Result** 1

**Query** Given the entry Nc1nc2c(ncn2COCCO)c(=O)[nH]1 , answer whether its k IAM meets or surpasses 3.
**Result** -1

**Query** Given the entry CC1(C)S[C@@H]2[C@H](NC(=O)[C@H](N)c3ccc(O)cc3)C(=O)N2[C@H]1C(=O)O , answer whether its k IAM meets or surpasses 3.
**Result** -1

###

# targetUnderTest: human serum albumin (HSA) (Homo sapiens)
# studyConditions: Table S9, external group
Parameter log kHSA: see the listing below.
Write no unit; give the number alone.

| compound | log kHSA |
| --- | --- |
| NC(=O)N1c2ccccc2CC(=O)c2ccccc21 [oxcarbamazepine] | -0.40 |
| CCC1(c2ccccc2)C(=O)NCNC1=O [primidone] | -0.66 |
| CCOC(=O)C1=C(C)NC(C)=C(C(=O)OC)C1c1cccc([N+](=O)[O-])c1 (centres unmarked) [nitrendipine] | 0.55 |

The recorded log kHSA for CC[C@@H](C(N)=O)N1CCCC1=O [levetiracetam] is -1.16

The recorded log kHSA for CCCCN1CCCCC1C(=O)Nc1c(C)cccc1C (centres unmarked) [bupivacaine] is 0.07

###

# targetUnderTest: bovine serum albumin (BSA) (Bos taurus)
# Construct: purchased Sigma Aldrich
# measurementNotes: RP TLC on plates impregnated with bovine serum albumin
# Type: binding
# studyConditions: Table S4, RP plate impregnated with 2 mg/mL BSA; pH 7.4 mobile phase
Parameter RP (Rf, BSA-impregnated RP plate): see the listing below.
Write no unit; give the number alone.

Consider the worked cases shown below.
| compound | targetUnderTest | RP (Rf, BSA-impregnated RP plate) |
| --- | --- | --- |
| CN(C)C(=O)C(CCN1CCC(O)(c2ccc(Cl)cc2)CC1)(c1ccccc1)c1ccccc1 [loperamide] | bovine serum albumin (BSA) (Bos taurus) | 0.77 |
| CC(=O)Nc1ccc(O)cc1 | bovine serum albumin (BSA) (Bos taurus) | 0.92 |
| OCCN1CCN(CCC=C2c3ccccc3Sc3ccc(C(F)(F)F)cc32)CC1 | bovine serum albumin (BSA) (Bos taurus) | 0.66 |
| CN(C)CCCN1c2ccccc2Sc2ccccc21 | bovine serum albumin (BSA) (Bos taurus) | 0.51 |

The recorded RP (Rf, BSA-impregnated RP plate) for CN1CCN(C(=O)OC2c3nccnc3C(=O)N2c2ccc(Cl)cn2)CC1 (stereo not drawn) is 0.83

The recorded RP (Rf, BSA-impregnated RP plate) for C[C@]12C=CC(=O)C=C1CC[C@@H]1[C@@H]2[C@@H](O)C[C@@]2(C)[C@H]1CC[C@]2(O)C(=O)CO is 0.88

The recorded RP (Rf, BSA-impregnated RP plate) for CN1CCC(=C2c3ccccc3C=Cc3ccccc32)CC1 is 0.47

The recorded RP (Rf, BSA-impregnated RP plate) for CN1C(C(=O)Nc2ccccn2)=C(O)c2ccccc2S1(=O)=O is 0.60

###

# targetUnderTest: bovine serum albumin (BSA) (Bos taurus, UniProt P02769)
# Construct: purchased Sigma Aldrich
# Sequence (P02769 25-607): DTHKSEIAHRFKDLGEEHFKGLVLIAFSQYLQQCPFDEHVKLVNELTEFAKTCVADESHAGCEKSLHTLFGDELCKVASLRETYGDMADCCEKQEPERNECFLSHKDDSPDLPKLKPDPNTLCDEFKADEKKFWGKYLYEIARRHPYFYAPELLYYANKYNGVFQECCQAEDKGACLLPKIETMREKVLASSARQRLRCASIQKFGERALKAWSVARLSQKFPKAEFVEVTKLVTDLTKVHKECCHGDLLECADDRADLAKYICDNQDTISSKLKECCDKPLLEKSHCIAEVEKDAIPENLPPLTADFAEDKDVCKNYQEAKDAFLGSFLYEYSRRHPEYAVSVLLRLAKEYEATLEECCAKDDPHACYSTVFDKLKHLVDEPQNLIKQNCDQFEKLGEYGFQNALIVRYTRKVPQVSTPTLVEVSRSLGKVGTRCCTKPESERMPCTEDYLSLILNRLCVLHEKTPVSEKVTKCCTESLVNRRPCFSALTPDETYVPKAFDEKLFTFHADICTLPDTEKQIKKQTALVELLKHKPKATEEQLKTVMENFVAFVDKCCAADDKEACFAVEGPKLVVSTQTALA
# measurementNotes: NP TLC on plates impregnated with bovine serum albumin
# Type: binding
# studyConditions: Table S3, NP plate impregnated with 2 mg/mL BSA; pH 7.4 mobile phase
Parameter NP (Rf, BSA-impregnated NP plate): see the listing below.
Write no unit; give the number alone.

| molecule | targetUnderTest | NP (Rf, BSA-impregnated NP plate) |
| --- | --- | --- |
| CC(=O)OCC(=O)[C@@]1(O)CC[C@H]2[C@@H]3CCC4=CC(=O)CC[C@]4(C)[C@H]3[C@@H](O)C[C@@]21C [hydrocortisone acetate] | bovine serum albumin (BSA) (Bos taurus, UniProt P02769) | 0.96 |

Please find the next molecule below.
The recorded NP (Rf, BSA-impregnated NP plate) for CC(C)C[C@H]1C(=O)N2CCC[C@H]2[C@]2(O)O[C@](NC(=O)[C@@H]3C=C4c5cccc6[nH]c(Br)c(c56)C[C@H]4N(C)C3)(C(C)C)C(=O)N12 is 0.96

###

# measurementNotes: Milk-to-plasma (M/P) drug concentration ratio obtained in vivo, from literature
# Parameters: species or system human
# studyConditions: Table S1, scale of drug penetration into milk 1-4
propertyMeasured: M/P code

The recorded M/P code for CC(C)NCC(O)COc1ccc(CCOCC2CC2)cc1 (stereo not shown) [betaxolol] is 4 (4 is M/P >1.20—dangerous)

###

# measurementNotes: HPLC on immobilized artificial membrane column (HPLCIAM)
# Assay type: physicochemical
# studyConditions: Table S5, IAM column, pH 7.4
propertyMeasured: log k IAM
Write no unit; give the number alone.

Consider the worked cases shown below.
| molecule | valueObserved |
| --- | --- |
| OCCN1CCN(CC/C=C2/c3ccccc3Sc3ccc(Cl)cc32)CC1 | 1.69 |
| CC(=O)S[C@@H]1CC2=CC(=O)CC[C@]2(C)[C@H]2CC[C@@]3(C)[C@@H](CC[C@@]34CCC(=O)O4)[C@H]12 | 1.13 |
| CNCCC(Oc1ccc(C(F)(F)F)cc1)c1ccccc1 (centres unmarked) | 1.82 |
| CN1CCN(C2=Nc3cc(Cl)ccc3Nc3ccccc32)CC1 | 1.71 |
| CC[C@H]1OC(=O)[C@H](C)[C@@H](O[C@H]2C[C@@](C)(OC)[C@@H](O)[C@H](C)O2)[C@H](C)[C@@H](O[C@@H]2O[C@H](C)C[C@H](N(C)C)[C@H]2O)[C@](C)(O)C[C@@H](C)CN(C)[C@H](C)[C@@H](O)[C@]1(C)O | -1.20 |
| C[C@H]1O[C@@H](O[C@H]2[C@@H](O)C[C@H](O[C@H]3[C@@H](O)C[C@H](O[C@H]4CC[C@@]5(C)[C@H](CC[C@@H]6[C@@H]5C[C@@H](O)[C@]5(C)[C@@H](C7=CC(=O)OC7)CC[C@]65O)C4)O[C@@H]3C)O[C@@H]2C)C[C@H](O)[C@@H]1O | 0.57 |
| CN/C(=N/CCSCc1nc[nH]c1C)NC#N | -0.58 |
| O=C(N[C@H](CO)[C@H](O)c1ccc([N+](=O)[O-])cc1)C(Cl)Cl | 0.03 |
| O=C(CCCN1CCC(O)(c2ccc(Cl)cc2)CC1)c1ccc(F)cc1 | 1.38 |
| CC(C)c1nc(N(C)S(C)(=O)=O)nc(-c2ccc(F)cc2)c1/C=C/[C@@H](O)C[C@@H](O)CC(=O)O | -0.02 |

The recorded log k IAM for COc1ccc2c(c1)c(CC(=O)O)c(C)n2C(=O)c1ccc(Cl)cc1 is 0.03

The recorded log k IAM for Cc1ccc(O)c([C@H](CCN(C(C)C)C(C)C)c2ccccc2)c1 is -0.68

The recorded log k IAM for CC(C)(O)c1ccccc1CC[C@@H](SCC1(CC(=O)O)CC1)c1cccc(/C=C/c2ccc3ccc(Cl)cc3n2)c1 is 2.00

The recorded log k IAM for Cn1c(=O)c2[nH]cnc2n(C)c1=O is -0.94
